B1: ZNF263 (parent)
chain: EKPYKCPECGEIFAHSSNLLRHQR

- Variants of: B1
- Experiment: protein stability index of a GFP-peptide fusion (GPS, HEK-293T) (PSI 1-6); higher = more stable;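 note: lentivirally expressed fusions sorted by FACS into six bins by GFP to DsRed ratio, PSI derived from sequencing read proportions per bin multiplied by bin number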
- Applied conditions: c terminus: a fixed tail appended
Measured property: protein stability index
Answer with a bare number; do not write a unit.

Which protein stability index is reported for this variant? EKPYKCHECGEIFAHSSNLLRHQR [P7H] 2.25

Request: EKPYKCPERGEIFAHSSNLLRHQR [C9R] 3.73

Another variant: EKPYKCPECGEIFAHSSNLLRAQR [H22A] 2.88

Item: EKPYKCPLCGEIFAHSSNLLRHQR [E8L] 2.37

Likewise for EKPYKCPECGEIFAHSFNLLRHQR [S17F] ? 2.85

Also EKNYKCPECGEIFAHSSNLLRHQR [P3N] , if possible. 1.39

Query EKPYKCEECGEIFAHSSNLLRHQR [P7E] next 2.85

Same read-out for EKPYKCPECGEIFAHSPNLLRHQR [S17P] ? 2.66

# repeat for EKPYKCPMCGEIFAHSSNLLRHQR [E8M] 1.95

Then EKPYKTPECGEIFAHSSNLLRHQR [C6T] ? 3.45

Same lookup for EKPYKCSECGEIFAHSSNLLRHQR [P7S] , please. 2.8

Consider next the variant EKPYKDPECGEIFAHSSNLLRHQR [C6D] in the same way. 3.49

Next variant up: EKPYKCPECGEWFAHSSNLLRHQR [I12W] 2.23

Lookup EEPYKCPECGEIFAHSSNLLRHQR [K2E] 3.09

Another: EKPYKCPECGEIFAHMSNLLRHQR [S16M] 3.32

Another variant to look at: EKPYKCPECGEIFAHSSNLNRHQR [L20N] 1.59

Quick one: EKPYKCPECGEIFARSSNLLRHQR [H15R] 2.31

Please give the result for EQPYKCPECGEIFAHSSNLLRHQR [K2Q] too. 2.89

Same read-out for EKPYKCPECGEIYAHSSNLLRHQR [F13Y] ? 2.19

What do you get for WKPYKCPECGEIFAHSSNLLRHQR [E1W] ? 1.76

What do you have for EKPYKCPECGEIFLHSSNLLRHQR [A14L] ? 2.75

Note, next up: EKPYKCPEWGEIFAHSSNLLRHQR [C9W] 2.34
